# target_desc: HIV-1 envelope ZM106.9 (HIV-1)
# assay_notes: cell-based or functional assay
measured_attribute: IC50, PSV assay (nM)
The reply should contain only the number, in nM.

bNAb14 (antibody, V domains shown) VH: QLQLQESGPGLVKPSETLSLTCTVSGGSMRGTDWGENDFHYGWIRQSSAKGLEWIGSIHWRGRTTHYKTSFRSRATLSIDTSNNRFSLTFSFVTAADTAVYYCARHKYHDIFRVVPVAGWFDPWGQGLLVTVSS VL: EIVMTQSPPTLSVSPGETATLSCRASQNVKNNLAWYQLKPGQAPRLLIFDASSRAGGIPDRFSGSGYGTDFTLTVNSVQSEDFGDYFCQQYEEWPRTFGQGTKVDIKR; 1.26
bNAb18 (antibody, V domains shown) VH: QVQLVQSGAEVRKPGSSVTISCKPVGGTFTNFAIHWVRQAPGQGLEWVGGRVPVVGIYKYGKKFHDRLRLYEDDPMKTVFLELRSLTSDDTGVYYCTRWRGCGMCPYDTSSYYNDASDVWGPGTKVIVSA VL: EIVLTQSPVTLSLSSGETGTLSCRASQNISSSWIAWYQQRRGQVPRLLISAASARAAGIPDRFTGRGSGTDFTLTITRLEPEDFGVYSCQYYGGSFFTFGPGTQVDVKR; 0.11
bNAb23 (antibody, V domains shown) VH: QVQLLESGPGLVRPSETLTLTCSVFNSRVSGYYYSWIRQPPGRGLEWIASTHFSLRPSRNPSLLSRVTTSIDTERYQVFLNMRSVTAADTAVYFCARGDASGWRADYFPHWGQGTLVVVSS VL: QSVLTQPPSASGSPGQSVTISCTGTSSDIGASDYVSWYQQYPGEAPKVIIYDVTKRPSGVPDRFSGSKSGTTASLTVSGLQAEDEADYYCSSDAGRHTLLFGGGTKVTVLG; 17.4

Memo: bNAb15 (antibody, V domains shown) VH: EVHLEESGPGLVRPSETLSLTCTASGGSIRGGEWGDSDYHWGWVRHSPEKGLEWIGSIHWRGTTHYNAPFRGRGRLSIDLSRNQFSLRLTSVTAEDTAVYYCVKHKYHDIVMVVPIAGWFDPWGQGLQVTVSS VL: EIMMTQSPAILSVSPGDRATLSCRASQSVKNNLAWYQKRPGQAPRLLIFDTSSRASGIPARFSGGGSGTEFTLTVNSMQSEDFATYYCQQYEEWPRTFGQGTKVEIKR , reported IC50, PSV assay: 1.34
